Source of measurements: patent KR20130112248A

# System: NO production in BV-2 cells [NO 생성; BV-2 세포]
# assay details: Nitric oxide (NO) quantification (nitrite, Griess reaction) in LPS-activated BV-2 cells
# Assay type: cell-based
# condition context: 20 μM, LPS 0.2 ㎍/mL, 24 h co-treatment, nitrite by Griess at 540 nm, 1440 min
Each entry below lists one item and its recorded NO (% of LPS) value.

NO production in BV-2 cells [NO 생성; BV-2 세포] NO (% of LPS) of CCCCNc1nc(NC(C)c2ccccc2)c2cnn(Cc3ccccc3)c2n1 (centres unmarked) [화합물 24f] is 9±1 % of LPS

----------
# Test system: NO production in BV-2 cells [NO 생성; BV-2 세포]
# assay details: Nitric oxide (NO) quantification (nitrite, Griess reaction) in LPS-activated BV-2 cells
# Format: cell-based
# condition context: 20 μM, LPS 0.2 ㎍/mL, 24 h co-treatment, nitrite by Griess at 540 nm, 1440 min
NO (% of LPS) values, listed per item

Some solved cases for reference:
* CCCCNc1nc(NC(C)c2ccccc2)c2cnn(Cc3ccccc3)c2n1 (stereo not shown) [24i] | 42±0.8 % of LPS
* CC(Nc1nc(S(C)(=O)=O)nc2c1cnn2Cc1ccccc1)c1ccccc1 (single isomer, unassigned) [화합물 23q] | 122±2.8 % of LPS
* CC(Nc1nc([S+](C)[O-])nc2c1cnn2Cc1ccccc1)c1ccccc1 (stereo not shown) [화합물 22h] | 59±1.4 % of LPS
* CC(Nc1nc([S+](C)[O-])nc2c1cnn2Cc1ccccc1)c1ccccc1 (stereo not shown) [화합물 22i] | 81±7.5 % of LPS
* CC(Nc1nc([S+](C)[O-])nc2c1cnn2Cc1ccccc1)c1ccccc1 (stereo not shown) [화합물 22j] | 70±3.9 % of LPS
* CSc1nc(NCc2ccccn2)c2cn[nH]c2n1 [6h, 4-(피리딘-2-일)메틸아미노-6-(메틸티오)피라졸로[3,4-d]피리미딘] | 97±5 % of LPS

Measured NO (% of LPS), CSc1nc(NC(C)c2ccccc2)c2cnn(Cc3ccccc3)c2n1 (stereo not shown) [화합물 16k] : 31±0.5 % of LPS

So, CSc1nc(N[C@H](C)c2ccccc2)c2cnn(C(C)(C)C)c2n1 [화합물 17g] ? Its NO (% of LPS) was 42±18 % of LPS

The value of NO (% of LPS) measured for the molecule COc1cccc(CCn2ncc3c(NCc4ccccc4C)nc(S(C)(=O)=O)nc32)c1 [화합물 23y] turned out to be 54±3.5 % of LPS

CC(Nc1nc(S(C)(=O)=O)nc2c1cnn2Cc1ccccc1)c1ccccc1 (single isomer, unassigned) [화합물 23r] has a reported NO (% of LPS) of 87±7.1 % of LPS
